# target-of-assay: GOPC, Q9HD26
# experiment-notes: holdup assay
# Set-up: key: below the threshold = too weak to quantify, mostly under pKd 3.1 to 4
# test-conditions: plain residues with an end cap or a label only (N-terminal biotin on a linker: ahx)
property-name: pKd

binder="AKPQPVDSWV [ARVCF, O00192]" property_name=pKd val="below the threshold"
binder="SAPATLSSRA [PDLIM2, Q96JY6]" property_name=pKd val="below the threshold"
binder="SKKNELFSNL [NHERF1, O14745]" property_name=pKd val="below the threshold"
binder="ADENEQVSAV [RAPGEF6, Q8TEU7]" property_name=pKd val="below the threshold"
binder="YNSFLSVTTV [PDZRN3, Q9UPQ7]" property_name=pKd val=4.1
binder="KEYDDELTFF [USH1C, Q9Y6N9]" property_name=pKd val="below the threshold"
